organism: Rattus norvegicus; test: In vitro LH-release potency of compound was measured in rat hemipituitaries by taking LH-RH as standard; type: functional
Square brackets hold non-standard residues; d marks the D form. Peptide text beside a SMILES is read from it. * marks the point of attachment. pGlu = O=C1CC[C@@H](C(=O)O)N1; X5 = N/C(S)=N\N*; X3 = CN(N)*; X4 = O=CNN*

{"molecule": "CC(C)C[C@H](NC(=O)CNC(=O)[C@H](Cc1ccc(O)cc1)NC(=O)[C@H](CO)NC(=O)[C@H](Cc1c[nH]c2ccccc12)NC(=O)[C@H](Cc1cnc[nH]1)NC(=O)[C@@H]1CCC(=O)N1)C(=O)N[C@@H](CCCNC(=N)N)C(=O)N1CCC[C@H]1C(=O)NCC(N)=O", "Potency": 100}
{"molecule": "CC(C)C[C@H](NC(=O)CNC(=O)[C@H](Cc1ccc(O)cc1)NC(=O)[C@H](CO)NC(=O)[C@H](Cc1c[nH]c2ccccc12)NC(=O)[C@H](Cc1c[nH]cn1)NC(=O)[C@@H]1CCC(=O)N1)C(=O)N[C@@H](CCCN=C(N)N)C(=O)N1CCC[C@H]1C(=O)NNC=O ([pGlu]HWSYGLRP-X4)", "Potency": 15.3}
{"molecule": "CC(C)C[C@H](NC(=O)CNC(=O)[C@H](Cc1ccc(O)cc1)NC(=O)[C@H](CO)NC(=O)[C@H](Cc1c[nH]c2ccccc12)NC(=O)[C@H](Cc1c[nH]cn1)NC(=O)[C@@H]1CCC(=O)N1)C(=O)N[C@@H](CCCN=C(N)N)C(=O)N1CCC[C@H]1C(=O)N/N=C(\\N)S ([pGlu]HWSYGLRP-X5)", "Potency": 6.5}
{"molecule": "CC(C)C[C@H](NC(=O)CNC(=O)[C@H](Cc1ccc(O)cc1)NC(=O)[C@H](CO)NC(=O)[C@H](Cc1c[nH]c2ccccc12)NC(=O)[C@H](Cc1c[nH]cn1)NC(=O)[C@@H]1CCC(=O)N1)C(=O)N[C@@H](CCCN=C(N)N)C(=O)N1CCC[C@H]1C(=O)N(C)N ([pGlu]HWSYGLRP-X3)", "Potency": 17}

* * *

species: Rattus norvegicus; assay: In vitro LH-release potency of compound was measured in rat hemipituitaries by taking LH-RH as standard; type: functional
Square brackets hold non-standard residues; d marks the D form. Peptide text beside a SMILES is read from it. * marks the point of attachment. pGlu = O=C1CC[C@@H](C(=O)O)N1; X1 = O=C(NN*)C(F)(F)F; X2 = CC(=O)NN*
Listing: Potency of selected molecules

{"molecule": "CC(=O)NNC(=O)[C@@H]1CCCN1C(=O)[C@H](CCCN=C(N)N)NC(=O)[C@H](CC(C)C)NC(=O)CNC(=O)[C@H](Cc1ccc(O)cc1)NC(=O)[C@H](CO)NC(=O)[C@H](Cc1c[nH]c2ccccc12)NC(=O)[C@H](Cc1c[nH]cn1)NC(=O)[C@@H]1CCC(=O)N1 ([pGlu]HWSYGLRP-X2)", "Potency": 1.2}
{"molecule": "CC(C)C[C@H](NC(=O)CNC(=O)[C@H](Cc1ccc(O)cc1)NC(=O)[C@H](CO)NC(=O)[C@H](Cc1c[nH]c2ccccc12)NC(=O)[C@H](Cc1c[nH]cn1)NC(=O)[C@@H]1CCC(=O)N1)C(=O)N[C@@H](CCCN=C(N)N)C(=O)N1CCC[C@H]1C(=O)NNC(=O)C(F)(F)F ([pGlu]HWSYGLRP-X1)", "Potency": 1}

Data origin, for the record: ChEMBL document CHEMBL1121789
